Assay: growth inhibitors of wild-type E. coli, primary screen, strain BW25113, expanded library, OD600 (AID 710);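 further: growth measured after 20 h incubation at 37 °C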
Settings: OD600 absorbance, at 100 µM, hits give high values
The whole screen tested about 98,000 compounds, of which about 150 (0.15%) were called active. This is one part of a sample in which actives are shown more often than they occur.
Experimental Readout: growth inhibition (%)
I only need the number, in %, no unit after it.

May I ask what growth inhibition has been recorded for CC(=O)Nc1ccc(N2C(=O)CCC2=O)cc1C ?
0

If you can, please state the reported growth inhibition value of CCC1CCCCN1CCCNC(=O)C1CCC(Cn2c(=O)[nH]c3ccccc3c2=O)CC1 (stereo not drawn) .
4

I'd like to know its growth inhibition. The compound in question is CCOC(=O)c1nc(C)n(-c2ccc(Cl)cc2Cl)n1
8

Field request: growth inhibition | item: COc1ccc(NC(=O)CSc2nc(N)c(-c3ccccc3)c(=O)[nH]2)cc1
-12

Item under review: Cc1cccc(NC(=O)/C(=C\c2ccco2)NC(=O)c2ccccc2)c1 . Reported growth inhibition?
-2

Suppose we examine the compound CCN(CC)S(=O)(=O)c1ccc(N(C)Cc2ccc(C(F)(F)F)cc2)nc1 ; what growth inhibition value has been reported?
-2

Using the record for Cc1ccn(C(CC(=O)c2ccc(Br)cc2)C(=O)O)n1 (stereo not drawn) , report its growth inhibition.
8

Given CCCNC(=O)c1ccccc1NC(=O)CSCc1ccc(OC)cc1 , state its recorded growth inhibition.
0

Quick one: growth inhibition for Cc1ccc(C2CC2C(=O)NN)cc1 (stereo not drawn) ?
-12

# query: growth inhibition of entry O=[N+]([O-])c1ccccc1OCCCCN1CCCCC1
8

Give its growth inhibition value. Item: CCc1nnc(NC(=O)CCC(=O)NCc2ccccc2OC)s1
-2

Tell me the measured growth inhibition of COc1ccc(N2CCN(C(=O)CCc3nc(-c4ccc(C)cc4)no3)CC2)cc1 , please.
-5

I'd like to know its growth inhibition. The compound in question is Cc1nnc(NC(=O)Nc2ccc(Cl)c(Cl)c2)s1
-9

Which growth inhibition is reported for this compound? COc1ccc(NC(=O)CSc2nc(NS(=O)(=O)c3ccc(C)cc3)cc(=O)[nH]2)cc1
-5

Item under review: COc1ccc(S(=O)(=O)Nc2ccc(F)cc2)c(C)c1C . Reported growth inhibition?
11

Need growth inhibition of Cc1cccc(NC(=O)CSc2nc3c(c(=O)[nH]2)CCCC3)c1C , thanks.
3

Name the reported growth inhibition value associated with the compound Cc1ccc(Oc2ccc3c(c2)C(=O)N(c2cccc4cccnc24)C3=O)cc1
3

For the compound shown here, CCc1cc(C(c2ccccc2OC)N2CCOCC2)c(NC(=O)c2ccccc2)s1 (stereo not drawn) , give the reported growth inhibition.
-3

Find the recorded growth inhibition belonging to CSc1ccc(C#N)cc1NC(=O)c1cccc(Cl)c1 and report it.
-8

Which growth inhibition reading was recorded for the compound C=CCOC(=O)C1=C(C)NC(SCC(=O)OCC)=C(C#N)C1c1ccc(C)cc1 (stereo not drawn) ?
-10

Return reported growth inhibition; argument: Cc1ccc(CNC(=O)C2CC(c3ccccc3[N+](=O)[O-])=NO2)o1 (stereo not drawn)
0

Please give the measured growth inhibition for this compound: CC(C)NC(=O)C(=O)N/N=C/c1ccco1
0

Return reported growth inhibition; argument: Clc1ccc(-c2nnc(-c3ccccc3)nc2N2CCSCC2)cc1
-24

Values were extracted from PubChem BioAssay AID710.
